Each recorded value in this set is attributed to patent US12565501B2.

For each of the compounds below, state its IC50.
Target or system: UniProt P11229
Method description: In vitro functional assay of muscarinic acetylcholine receptor activity (aequorin calcium flux, reversal of EC80 acetylcholine response)
Format: cell-based
Measurement setup: CHO-K1 cells stably expressing human M1 receptor with aequorin; acetylcholine at EC80; calcium flux (luminescence); read-out: M1 IC50

For every record below, what is its IC50?
1. COc1cccc2c1CCN(CC(=O)N1CC3CCC(C1)N3c1ccc(C#N)cn1)C2C (racemic)
2. N#Cc1ccc(N2C3CCC2CN(C(=O)COC2(c4ccc(F)cc4Br)CC2)C3)nc1
3. N#Cc1ccc(N2C3CCC2CN(C(=O)CN2CC(c4ccc(F)cc4)C2)C3)nc1

OUT:
1. 100 to 1000 nM
2. 10 to 100 nM
3. > 1000 nM

----------
Target or system: human M1 receptor (Homo sapiens)
Method description: In vitro functional assay of muscarinic acetylcholine receptor activity (aequorin calcium flux, reversal of EC80 acetylcholine response)
Type: cell-based
Measurement setup: CHO-K1 cells stably expressing human M1 receptor with aequorin; acetylcholine at EC80; calcium flux (luminescence); read-out: M1 IC50
pIC50: −log10 of the molar value.
Experimental endpoint: pIC50

# count of solved cases: 3
[
  {
    "Compound": "COc1ccc(F)cc1C1(NCC(=O)N2CC3CCC(C2)N3c2ccc(C#N)cn2)CC1 [Example 76]",
    "pIC50": "> 8.00"
  },
  {
    "Compound": "N#Cc1ccc(N2C[C@H]3C[C@@H]2CN3C(=O)CNC2(c3ccc(F)cc3F)CC2)nc1 [Example 80]",
    "pIC50": "< 6.00"
  },
  {
    "Compound": "COc1cncc(C2(OCC(=O)N3CC4CCC(C3)N4c3ccc(C#N)cn3)COC2)c1 [Example 243]",
    "pIC50": "6.00 to 7.00"
  }
]

We next turn to a different compound, shown below.
IN: What pIC50 value was documented for this compound, N#Cc1ccc(N2C3CCC2CN(C(=O)CCNC(c2ccc(F)c(F)c2)C(F)F)C3)nc1 (racemic) [Example 129] ?
OUT: > 8.00

----------
Target or system: human M1 receptor (Homo sapiens, UniProt P11229)
Sequence (P11229 whole entry): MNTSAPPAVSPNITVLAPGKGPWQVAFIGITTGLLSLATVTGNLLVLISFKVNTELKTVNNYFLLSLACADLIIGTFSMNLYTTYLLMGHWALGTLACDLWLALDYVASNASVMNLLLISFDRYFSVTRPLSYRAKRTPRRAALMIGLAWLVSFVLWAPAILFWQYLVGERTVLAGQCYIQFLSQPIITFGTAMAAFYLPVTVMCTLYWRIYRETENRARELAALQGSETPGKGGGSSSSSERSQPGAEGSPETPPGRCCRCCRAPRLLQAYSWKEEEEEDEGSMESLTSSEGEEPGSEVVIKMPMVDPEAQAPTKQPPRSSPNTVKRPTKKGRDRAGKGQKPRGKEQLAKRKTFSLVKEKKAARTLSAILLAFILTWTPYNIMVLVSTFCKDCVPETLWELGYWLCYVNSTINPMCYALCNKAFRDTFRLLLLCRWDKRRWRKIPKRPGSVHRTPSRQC
Method description: In vitro functional assay of muscarinic acetylcholine receptor activity (aequorin calcium flux, reversal of EC80 acetylcholine response)
Type: cell-based
Measurement setup: CHO-K1 cells stably expressing human M1 receptor with aequorin; acetylcholine at EC80; calcium flux (luminescence); read-out: M1 IC50
pIC50: −log10 of the molar value.
Assign pIC50 to each entry below.

// worked examples, pIC50 included
[
  {
    "Molecule": "COc1c(F)cccc1C1(NCC(=O)N2CC3CCC(C2)N3c2ccc(C#N)cn2)CC1",
    "Target or system": "human M1 receptor (Homo sapiens, UniProt P11229)",
    "pIC50": "> 8.00"
  },
  {
    "Molecule": "N#Cc1ccc(N2C3CCC2CN(C(=O)COC2(c4ccccc4)CC2)C3)nc1",
    "Target or system": "human M1 receptor (Homo sapiens, UniProt P11229)",
    "pIC50": "7.00 to 8.00"
  },
  {
    "Molecule": "N#Cc1ccc(N2C3CCC2CN(C(=O)COC2CCc4cc(F)ccc42)C3)nc1 (racemic)",
    "Target or system": "human M1 receptor (Homo sapiens, UniProt P11229)",
    "pIC50": "7.00 to 8.00"
  }
]

Please give pIC50 for each item listed below.
1. CC(OCCC(=O)N1CC2CCC(C1)N2c1ccc(C#N)cn1)c1cccc2nccnc12 (racemic)
2. COc1ccc(C2(OCC(=O)N3CC4CCC(C3)N4c3ccc(C#N)cn3)CC2)c(F)c1

OUT:
1. > 8.00
2. < 6.00

Each of the following entries comes with a recorded value; kindly state pIC50 for each.
1. N#Cc1ccc(N2C3CCC2CN(C(=O)CNC2(c4cccnn4)CC2)C3)nc1
2. COc1cc(C2(NCC(=O)N3CC4CCC(C3)N4c3ccc(C#N)cn3)CC2)ccc1F
3. N#Cc1ccc(N2C3CCC2CN(C(=O)COC2(c4cccnn4)CCC2)C3)nc1

OUT:
6.00 to 7.00
> 8.00
7.00 to 8.00

----------
I'd be grateful if you could share measured pIC50 for these entries.
Target or system: human M1 receptor (Homo sapiens)
Method description: In vitro functional assay of muscarinic acetylcholine receptor activity (aequorin calcium flux, reversal of EC80 acetylcholine response)
Format: cell-based
Measurement setup: CHO-K1 cells stably expressing human M1 receptor with aequorin; acetylcholine at EC80; calcium flux (luminescence); read-out: M1 IC50
pIC50: −log10 of the molar value.

Consider the worked cases shown below.
[
  {
    "Compound": "Cn1ccc(C2(OCC(=O)N3CC4CCC(C3)N4c3ccc(C#N)cn3)CCC2)cc1=O",
    "Observed result": "7.00 to 8.00"
  },
  {
    "Compound": "CC(OCC(=O)N1CC2CCC(C1)N2c1ccc(C#N)cn1)c1cccc2ncccc12 (racemic)",
    "Observed result": "> 8.00"
  },
  {
    "Compound": "COc1cc(C(F)(F)CCC(=O)N2CC3CCC(C2)N3c2ccnc(C#N)c2)ccn1",
    "Observed result": "6.00 to 7.00"
  }
]

Report pIC50 for each item below.
1. N#Cc1ccc(N2C3CCC2CN(C(=O)CCC(F)(F)c2cccn4ncnc24)C3)nc1
2. C[C@H](COCC(=O)N1CC2CCC(C1)N2c1ccc(C#N)cn1)c1ccccc1

OUT:
> 8.00
5.00 to 6.00

Give pIC50 for each listed item.
1. Cc1noc(C)c1C(C)OCC(=O)N1CC2CCC(C1)N2c1ccc(C#N)cn1 (racemic)
2. COc1ccc2c(c1)C(C)N(CC(=O)N1CC3CCC(C1)N3c1ccc(C#N)cn1)CC2 (racemic)
3. N#Cc1ccc(N2C3CCC2CN(C(=O)COC2(c4cc(F)cc(Br)c4)CC2)C3)nc1

OUT:
> 8.00
5.00 to 6.00
7.00 to 8.00

----------
Target or system: human M1 receptor (Homo sapiens)
Method description: In vitro functional assay of muscarinic acetylcholine receptor activity (aequorin calcium flux, reversal of EC80 acetylcholine response)
Format: cell-based
Measurement setup: CHO-K1 cells stably expressing human M1 receptor with aequorin; acetylcholine at EC80; calcium flux (luminescence); read-out: M1 IC50
Experimental endpoint: IC50

These solved cases illustrate the format of a correct answer.
[
  {
    "Compound": "N#Cc1cc(N2[C@@H]3CC[C@H]2CN(C(=O)CCNC2(c4ccc(F)c(F)c4)CC2)C3)ccn1 [Example 43]",
    "Observed result": "10 to 100 nM"
  },
  {
    "Compound": "CC(c1ccccc1)S(=O)(=O)CC(=O)N1CC2CCC(C1)N2c1ccc(C#N)cn1 (racemic) [Example 172]",
    "Observed result": "> 1000 nM"
  },
  {
    "Compound": "CC(NCC(=O)N1CC2CCC(C1)N2c1ccc(C#N)cn1)c1ccc(F)cc1F (stereo in doubt) [Example 88]",
    "Observed result": "1000 to 10000 nM"
  },
  {
    "Compound": "N#Cc1ccc(N2C3CCC2CN(C(=O)COC(c2ccc(F)c(F)c2)C(F)F)C3)nc1 (racemic) [Example 201]",
    "Observed result": "10 to 100 nM"
  },
  {
    "Compound": "N#Cc1ccc(N2C[C@H]3CC[C@@H]2CN3C(=O)COC2(c3ccc(F)c(F)c3)CC2)nc1 [Example 286]",
    "Observed result": "> 1000 nM"
  }
]

For every record below, what is its IC50?
1. N#Cc1ccc(N2C3CCC2CN(C(=O)CCNC2(c4cccc(C#N)c4)CC2)C3)nc1 [Example 13]
2. N#Cc1cc(N2C3CCC2CN(C(=O)CNC2(c4ccc(F)cc4F)CC2)C3)ccn1 [Example 84]
3. N#Cc1ccc(N2[C@@H]3CC[C@H]2CN(C(=O)CCNC2(c4ccc(Cl)c(F)c4)CC2)C3)nc1 [Example 34]

OUT:
10 to 100 nM
100 to 1000 nM
< 10 nM

Please state IC50 for every compound in the list that follows.
1. N#Cc1ccc(N2C3CCC2CN(C(=O)CCOC2(c4ccc(F)c(F)c4)CCC2)C3)nc1 [Example 303]
2. C[C@H](NCCC(=O)N1C[C@H]2CC[C@@H](C1)N2c1ccc(C#N)cn1)c1ccc(F)c(F)c1 [Example 8]
3. CCC(OCC(=O)N1CC2CCC(C1)N2c1ccc(C#N)cn1)c1cc(F)cc(Br)c1 (racemic) [Example 218]
4. N#Cc1ccc(N2C3CCC2CN(C(=O)C2CC(O)(c4cccc5ncccc45)C2)C3)nc1 (stereo not shown) [Example 152]
5. N#Cc1ccc(N2[C@@H]3CC[C@H]2CN(C(=O)CCNC2(c4ccc(F)c(F)c4)CC2)C3)nn1 [Example 42]
6. CC(SCCC(=O)N1CC2CCC(C1)N2c1ccc(C#N)cn1)c1ccccc1 (racemic) [Example 134]

OUT:
1: < 10 nM; 2: 100 to 1000 nM; 3: < 10 nM; 4: 1000 to 10000 nM; 5: < 10 nM; 6: 100 to 1000 nM
